targetOrSystem: human α7 nAChR (Homo sapiens)
Construct: expressed in transfected cells; host or cells: Xenopus oocytes
testProtocol: Two-electrode voltage clamping of human α7 nAChR expressed in Xenopus oocytes (net-charge / peak current relative to 60 μM ACh)
Assay type: cell-based
conditionContext: 30 μM compound alone, relative to 60 μM ACh controls (n ≥ 4)
measuredAttribute: Peak current
Just the number.

compound | Peak current
CC[N+]1(CC)CCN(c2ccc(Cl)cc2)CC1.[I-] [Compound 2e] | 0.17
CC[N+]1(CC)CCN(c2cccc(O)c2)CC1.[I-] [Compound 2k] | 0.19
CC[N+]1(CC)CCN(c2ccccc2C)CC1.[I-] [Compound 2h] | 0.15
CC[N+]1(CC)CCN(c2ccccc2Cl)CC1.[I-] [Compound 2j] | 0.23
CC[N+]1(CC)CCN(c2ccc3ccccc3c2)CC1.[I-] [Compound 2m] | 0.10

Provide measured Peak current value, entry: CC[N+]1(CC)CCN(c2ccc(C#N)cc2)CC1.[I-] [Compound 2b]
0.10

---

measuredAttribute: melting point

Answer with reported melting point of CC[N+]1(CC)CCN(c2cccc(C)c2)CC1.[I-]
144 to 145 °C

Please indicate melting point recorded for CC[N+]1(CC)CCN(c2ccc(C)cc2)CC1.[I-]
147.4 to 148.8 °C

Let me know recorded melting point for CCN1CCN(c2ccc(C(F)(F)F)cc2)CC1 , thanks.
56.3 to 56.5 °C

---

targetOrSystem: human α7 nAChR (Homo sapiens, UniProt P36544)
Construct: expressed in transfected cells; host or cells: Xenopus oocytes
Sequence (P36544 23-502): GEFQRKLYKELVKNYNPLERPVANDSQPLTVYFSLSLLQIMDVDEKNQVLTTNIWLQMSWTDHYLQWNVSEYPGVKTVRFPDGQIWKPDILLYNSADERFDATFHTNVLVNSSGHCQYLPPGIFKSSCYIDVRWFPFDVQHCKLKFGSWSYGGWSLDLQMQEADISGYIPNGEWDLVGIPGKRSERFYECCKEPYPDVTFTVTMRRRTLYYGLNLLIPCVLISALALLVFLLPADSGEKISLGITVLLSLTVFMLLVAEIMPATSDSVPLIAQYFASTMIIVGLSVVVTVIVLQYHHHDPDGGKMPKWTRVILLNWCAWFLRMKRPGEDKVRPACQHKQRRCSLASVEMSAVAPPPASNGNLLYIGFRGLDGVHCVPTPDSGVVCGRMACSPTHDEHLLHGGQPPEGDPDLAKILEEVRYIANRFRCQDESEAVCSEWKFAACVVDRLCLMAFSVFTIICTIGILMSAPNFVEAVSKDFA
testProtocol: Two-electrode voltage clamping of human α7 nAChR expressed in Xenopus oocytes (net-charge / peak current relative to 60 μM ACh)
Type: cell-based
conditionContext: rank among six partial agonists, from peak-current-to-net-charge ratio
Decision: Estimated Rank potency >= 3 yields true, all other cases yield false.

Solved cases below.
recordSmiles | assignedLabel
CC[N+]1(CC)CCN(c2ccc3ccccc3c2)CC1.[I-] | false
CC[N+]1(CC)CCN(c2ccccc2C)CC1.[I-] | true
CC[N+]1(CC)CCN(c2ccc(Cl)cc2)CC1.[I-] | false
CC[N+]1(CC)CCN(c2ccccc2Cl)CC1.[I-] | true

Then this compound:
Hi team, for CC[N+]1(CC)CCN(c2ccc(C#N)cc2)CC1.[I-] , is the recorded Estimated Rank potency at or above 3?
true

---

targetOrSystem: human α7 nAChR (Homo sapiens, UniProt P36544)
Construct: expressed in transfected cells; host or cells: Xenopus oocytes
testProtocol: Two-electrode voltage clamping of human α7 nAChR expressed in Xenopus oocytes (net-charge / peak current relative to 60 μM ACh)
Format: cell-based
conditionContext: rank among six partial agonists
Recorded Estimated Rank efficacy, one value per entry.
Give the value as a plain number.

Some compounds with known Estimated Rank efficacy results, for comparison:
compound | recordedMeasurement
CC[N+]1(CC)CCN(c2cccc(O)c2)CC1.[I-] [Compound 2k] | 4
CC[N+]1(CC)CCN(c2ccc(C#N)cc2)CC1.[I-] [Compound 2b] | 3
CC[N+]1(CC)CCN(c2ccc(Cl)cc2)CC1.[I-] [Compound 2e] | 5
CC[N+]1(CC)CCN(c2ccccc2Cl)CC1.[I-] [Compound 2j] | 2

Give me measured Estimated Rank efficacy, please, for this compound: CC[N+]1(CC)CCN(c2ccccc2C)CC1.[I-] [Compound 2h]
1

Find the measured Estimated Rank efficacy of CC[N+]1(CC)CCN(c2ccc3ccccc3c2)CC1.[I-] [Compound 2m] and report it.
6

These measurements were taken from patent US11155551B2.
